Molecular target: Zinc finger protein mex-5 (Caenorhabditis elegans)
Sequence (Q9XUB2 whole entry): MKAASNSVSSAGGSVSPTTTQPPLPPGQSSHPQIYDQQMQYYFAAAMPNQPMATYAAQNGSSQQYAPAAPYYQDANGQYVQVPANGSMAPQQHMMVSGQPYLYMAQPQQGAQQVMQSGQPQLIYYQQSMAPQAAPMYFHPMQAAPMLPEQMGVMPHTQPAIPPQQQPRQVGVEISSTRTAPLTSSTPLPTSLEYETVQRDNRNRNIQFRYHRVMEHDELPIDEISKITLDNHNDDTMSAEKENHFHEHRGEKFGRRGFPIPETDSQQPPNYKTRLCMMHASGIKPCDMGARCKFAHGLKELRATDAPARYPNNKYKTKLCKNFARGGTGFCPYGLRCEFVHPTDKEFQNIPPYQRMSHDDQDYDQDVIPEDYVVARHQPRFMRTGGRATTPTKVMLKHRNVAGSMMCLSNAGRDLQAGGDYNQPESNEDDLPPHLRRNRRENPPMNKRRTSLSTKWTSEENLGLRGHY
Test: MEX-5/TCR-2 RNA interaction inhibitors, dose response, biochemical, C. elegans, fluorescence polarization (AID 1960)
Calls of active or inactive are those of the source. No stated cut-off is given here; in the data, actives have a measured EC50 and inactives only a lower limit.
recorded-metric: EC50

Known EC50 results, listed for orientation:
Problem: EC50 lookup needed for `Cc1ccc(Cl)c2c(N=Nc3ccccc3)c(O)[nH]c12` , thanks.
Result: > 300 µM (inconclusive)

Problem: Consider next the compound `CN1CCc2c(sc(NC(=O)c3ccc4ccccc4c3)c2C(N)=O)C1` in the same way.
Result: > 300 µM (inconclusive)

Problem: Consider next the compound `CCOC(=O)c1nn(-c2ccc(C)cc2)c2nc(Nc3ccccc3)cc(=O)n12` in the same way.
Result: > 300 µM (not active)

Problem: Consider next the compound O=C(NCc1ccccc1)C1Nc2ccc(OC(F)(F)F)cc2C2C=CCC12 (configuration not stated) in the same way.
Result: > 300 µM (not active)

Problem: Consider next the compound `CN1C(=O)/C(=C/c2ccc(N3CCCCCC3)o2)C(=O)NC1=S` in the same way.
Result: > 300 µM (inconclusive)

Others:
Problem: EC50 lookup needed for `CN(C)c1ccc(N/C=C2/C(=O)NC(=O)N(CCC3=CCCCC3)C2=O)cc1` , thanks.
Result: > 300 µM (not active)

Problem: Consider next the compound `O=c1cc(-c2ccc(O)c(O)c2)oc2cc(O)cc(O)c12` in the same way.
Result: 31 µM (active)

Problem: Consider next the compound `Cc1nnc(S/C(=C/c2ccc(-c3cc(Cl)ccc3C)o2)C(=O)O)[nH]1` in the same way.
Result: 31 µM (active)

Problem: Consider next the compound CC1=CC(C)(C)N2C(=O)C3(C(C#N)=C(N)OC4=C3C(=O)CC(C)(C)C4)c3cccc1c32 (configuration not stated) in the same way.
Result: > 300 µM (not active)

Problem: Consider next the compound `O=C1NC(=S)/C(=C\c2ccc(-c3ccccc3Cl)o2)S1` in the same way.
Result: > 300 µM (not active)

Problem: Consider next the compound `Cc1c(C(=O)O)cccc1-n1c(C)cc(/C=N/NC(=O)c2cc3ccccc3o2)c1C` in the same way.
Result: > 300 µM (not active)

Problem: Consider next the compound `COC(=O)C1=C(C)N(c2ccccc2)/C(=C/c2ccco2)C1=O` in the same way.
Result: 5.06 µM (active)

FYI, the data here is from ChEMBL document CHEMBL1201862.
